Listed compounds paired with reported T/C
- Test system: P388 leukemia ip, CD2F1 mice, survival T/C
- test_summary: NCI In Vivo Anticancer Drug Screen. Data for tumor model P388 Leukemia (intraperitoneal) in CD2F1 (CDF1) mice
- experimental_setup: endpoint: median survival time; dose: 6.25 mg/kg/injection; schedule: Q01DX005 (ip); vehicle: saline with Tween-80; higher = longer survival
Inconclusive results and toxic doses are left out.

Some compounds with recorded T/C:
N#C/C(=N\NC(=O)c1cccc(C(=O)N/N=C(\C#N)c2ccccc2Cl)n1)c1ccccc1Cl | 91 % of control
O=Nc1c(O)c(Cl)cc2ccccc12 | 103 % of control
COc1c(-c2ccc3c(c2)OCO3)oc2cc(O)cc(O)c2c1=O | 100 % of control
COc1cccc(/C(C#N)=N/NC(=O)c2nc[nH]c2C)c1 | 95 % of control
Cc1cc2ccccc2c[n+]1CCCCCCCCI | 110 % of control

We now examine a further compound.
Which T/C reading was recorded for the compound CSc1ccc(N2C(N)=NC(N)=NC2(C)C)cc1 ? 100 % of control

----------
- System: P388 leukemia ip, CD2F1 mice, survival T/C
- test_summary: NCI In Vivo Anticancer Drug Screen. Data for tumor model P388 Leukemia (intraperitoneal) in CD2F1 (CDF1) mice
- experimental_setup: endpoint: median survival time; dose: 200.0 mg/kg/injection; schedule: Q04DX002 (ip); vehicle: Klucel (hydroxypropylcellulose) (HPC); higher = longer survival
Inconclusive results and toxic doses are left out.
Listed compounds paired with reported T/C

Which T/C reading was recorded for the compound FC(F)(F)c1nnc(-c2ccccc2)nn1 ? 104 % of control

Which T/C reading was recorded for the compound CC1CCOBO1 (configuration not stated) ? 101 % of control

Which T/C reading was recorded for the compound CCOC(=O)C(Nc1cc([N+](=O)[O-])ccc1C(=O)OC(C)C)(OC(C)C)C(=O)OCC ? 91 % of control

Which T/C reading was recorded for the compound Cc1nc2scc(-c3ccc(Cl)cc3)n2c(=O)c1CN1CCCCC1 ? 97 % of control

----------
- System: P388 leukemia ip, CD2F1 mice, survival T/C
- test_summary: NCI In Vivo Anticancer Drug Screen. Data for tumor model P388 Leukemia (intraperitoneal) in CD2F1 (CDF1) mice
- experimental_setup: endpoint: median survival time; dose: 50.0 mg/kg/injection; schedule: Q01DX009 (ip); vehicle: Klucel (hydroxypropylcellulose) (HPC); higher = longer survival
Toxic doses and inconclusive results are not listed.
result_type: T/C

Some compounds with recorded T/C:
CC(C)CSc1nc2ccc(N=Cc3ccccc3O)cc2s1 | 94 % of control
Cn1c(=O)c2nc3c(=O)n(C)c(=O)n(C)c3nc2n(C)c1=O | 111 % of control
Cc1ccc(N2C(=O)CCSC2=S)cc1Cl | 115 % of control
NN(CC(O)COc1ccccc1)C(=O)c1ccccc1O (stereo unspecified) | 108 % of control
Cc1cs/c(=N/N=C2C=CC(=O)C=C2)n1O | 102 % of control
COC1/C=C/OC2(C)Oc3c(C)c(O)c4c(c3C2=O)C(N)=C(Nc2ccccc2)C(=NC(=O)C(C)=CC=CC(C)C(O)C(C)C(O)C(C)C(OC(C)=O)C1C)C4=O (stereo unspecified) | 94 % of control
[N-]=[N+]=N[Si](c1ccccc1)(c1ccccc1)c1ccccc1 | 103 % of control
COc1ccc2c(oc(=O)c3c(Cl)nc(C)c(C)c32)c1OC | 98 % of control

Which T/C reading was recorded for the compound Clc1ccc(Cl)c(NNc2cc(Cl)ccc2Cl)c1 ? 91 % of control

Which T/C reading was recorded for the compound O=C1C=CC2(CC=CCC2)CC1 (stereo unspecified) ? 121 % of control

Which T/C reading was recorded for the compound O=C1NC(=O)N(c2ccc(Cl)c(Cl)c2)C1=O ? 94 % of control

----------
- Test system: P388 leukemia ip, CD2F1 mice, survival T/C
- test_summary: NCI In Vivo Anticancer Drug Screen. Data for tumor model P388 Leukemia (intraperitoneal) in CD2F1 (CDF1) mice
- experimental_setup: endpoint: median survival time; dose: 120.0 mg/kg/injection; schedule: Q01DX005 (ip); vehicle: Klucel (hydroxypropylcellulose) (HPC); higher = longer survival
Toxic doses and inconclusive results are not listed.
Listed compounds paired with reported T/C

Some compounds with recorded T/C:
CN1C(=O)[C@@H]2N(N(C)C1=O)[C@@]1(Br)C(=O)N(C)C(=O)[C@@]21Br | 105 % of control
Cn1c2ccccc2c2oc(-c3nn[nH]n3)cc(=O)c21 | 105 % of control

Which T/C reading was recorded for the compound COC1(OC)C(C)C(C#N)(C#N)C1(OC)OC (stereo not given) ? 106 % of control

Which T/C reading was recorded for the compound CCc1c(-c2ccccc2)n[nH]c1-c1[nH]nc(-c2ccccc2)c1CC ? 96 % of control

Which T/C reading was recorded for the compound S=P(Oc1ccccc1)(N1CCCCN1)N1CCCCN1 ? 107 % of control

Which T/C reading was recorded for the compound COc1ccc(C2c3cc4c(cc3OC3(N5CCCC5)CCCC23)OCO4)c(OC)c1 (stereo not given) ? 95 % of control

----------
- System: P388 leukemia ip, CD2F1 mice, survival T/C
- test_summary: NCI In Vivo Anticancer Drug Screen. Data for tumor model P388 Leukemia (intraperitoneal) in CD2F1 (CDF1) mice
- experimental_setup: endpoint: median survival time; dose: 100.0 mg/kg/injection; schedule: Q01DX001 (ip); vehicle: saline with Tween-80; higher = longer survival
Toxic doses and inconclusive results are not listed.
Listed compounds paired with reported T/C

Some compounds with recorded T/C:
O=c1nc(Cl)c2ccccc2c2ccccc12 | 96 % of control
O=C(OC1OC(COCc2ccccc2)C(OCc2ccccc2)C(OCc2ccccc2)C1OCc1ccccc1)c1ccc([N+](=O)[O-])cc1 (stereo not drawn) | 92 % of control

Which T/C reading was recorded for the compound COc1ccc(/C=N/Nc2nnc3c4ccccc4c4ncccc4c3n2)cc1 ? 88 % of control

----------
- System: P388 leukemia ip, CD2F1 mice, survival T/C
- test_summary: NCI In Vivo Anticancer Drug Screen. Data for tumor model P388 Leukemia (intraperitoneal) in CD2F1 (CDF1) mice
- experimental_setup: endpoint: median survival time; dose: 50.0 mg/kg/injection; schedule: Q01DX005 (ip); vehicle: Klucel (hydroxypropylcellulose) (HPC); higher = longer survival
Toxic doses and inconclusive results are not listed.
Listed compounds paired with reported T/C

Some compounds with recorded T/C:
CCOc1ccc(-n2c(O)c(N=Nc3ccccc3OC)sc2=S)cc1 | 97 % of control
CCOC(=O)Cn1nc2oc(=O)c(CCN3CCN(c4ccccc4OC)CC3)c(C)c2c1C | 100 % of control
NC(=S)c1ccc2ccccc2c1 | 100 % of control
CCC(=O)Nc1nnc(SCCCCCCCCCCCCSc2nnc(NC(=O)CC)s2)s1 | 96 % of control
CCOc1cccc(/C=C2\NC(=S)N(c3ccccc3)C2=O)c1O | 101 % of control

Which T/C reading was recorded for the compound COc1ccc(OC)c2cc3c(cc12)C(=O)C(C)=C(C)C3=O ? 89 % of control

----------
- System: P388 leukemia ip, CD2F1 mice, survival T/C
- test_summary: NCI In Vivo Anticancer Drug Screen. Data for tumor model P388 Leukemia (intraperitoneal) in CD2F1 (CDF1) mice
- experimental_setup: endpoint: median survival time; dose: 25.0 mg/kg/injection; schedule: Q01DX005 (ip); vehicle: saline; higher = longer survival
Inconclusive results and toxic doses are left out.
result_type: T/C

Some compounds with recorded T/C:
CCCCN(CCCC)CC(O)c1ccc(F)c2ccccc12 (stereo not drawn) | 105 % of control
CCCCN(CCCC)C(=O)/C(O)=C(\O)C(=O)N(CCCC)CCCC | 90 % of control
CCCCCCCCCCCCOCCCOP(=O)([O-])OCC[N+](C)(C)C | 91 % of control

We now examine a further compound.
I'm curious: which T/C was measured for COc1cc2c[n+](C)c3c4cc(OC)c(OC)cc4c(OC)cc3c2cc1OC tested on P388 leukemia ip, CD2F1 mice, survival T/C? 109 % of control

----------
Listed compounds paired with reported T/C
- Test system: P388 leukemia ip, CD2F1 mice, survival T/C
- test_summary: NCI In Vivo Anticancer Drug Screen. Data for tumor model P388 Leukemia (intraperitoneal) in CD2F1 (CDF1) mice
- experimental_setup: endpoint: median survival time; dose: 30.0 mg/kg/injection; schedule: Q01DX009 (ip); vehicle: saline; higher = longer survival
Toxic doses and inconclusive results are not listed.

CN(C)CCCNc1cccc2c1C(=O)c1c(NCCCN(C)C)cccc1C2=O | 96 % of control

I'm curious: which T/C was measured for COC(=O)NC1C(C)OC(OC2C/C=C(/C)C3C=CC4C(OC5CC(OC6CC(OC7CC(O)C(O)C(C)O7)C(OC7CC(O)C(OC)C(C)O7)C(C)O6)C(O)C(C)O5)C(C)CC(C)C4C3(C)/C(O)=C3\C(=O)OC4(CC(C)C(CO)=CC4/C=C\2C)C3=O)CC1(C)[N+](=O)[O-] (stereo not given) tested on P388 leukemia ip, CD2F1 mice, survival T/C? 121 % of control

I'm curious: which T/C was measured for CC1CC2Oc3ccc(Cl)cc3C(=O)N2O1 (stereo not given) tested on P388 leukemia ip, CD2F1 mice, survival T/C? 104 % of control

I'm curious: which T/C was measured for NCCCC(NN)C(=O)O (stereo not given) tested on P388 leukemia ip, CD2F1 mice, survival T/C? 103 % of control

I'm curious: which T/C was measured for CC1(C)N=C(N)N=C(N)N1c1ccc(CCCCc2ccc(S(=O)(=O)F)cc2)c(Cl)c1 tested on P388 leukemia ip, CD2F1 mice, survival T/C? 159 % of control
